biological target: PKC isoform β-II (Homo sapiens); test: Protein Kinase C histone-based assay, PKC β-II; settings: histone III substrate, 30 μM ATP; error approximately within ±30 percent; read-out: PKC Activity, Beta II (IC50, Histone Based Assay)
Sequence (P05771 1-673 isoform P05771-2): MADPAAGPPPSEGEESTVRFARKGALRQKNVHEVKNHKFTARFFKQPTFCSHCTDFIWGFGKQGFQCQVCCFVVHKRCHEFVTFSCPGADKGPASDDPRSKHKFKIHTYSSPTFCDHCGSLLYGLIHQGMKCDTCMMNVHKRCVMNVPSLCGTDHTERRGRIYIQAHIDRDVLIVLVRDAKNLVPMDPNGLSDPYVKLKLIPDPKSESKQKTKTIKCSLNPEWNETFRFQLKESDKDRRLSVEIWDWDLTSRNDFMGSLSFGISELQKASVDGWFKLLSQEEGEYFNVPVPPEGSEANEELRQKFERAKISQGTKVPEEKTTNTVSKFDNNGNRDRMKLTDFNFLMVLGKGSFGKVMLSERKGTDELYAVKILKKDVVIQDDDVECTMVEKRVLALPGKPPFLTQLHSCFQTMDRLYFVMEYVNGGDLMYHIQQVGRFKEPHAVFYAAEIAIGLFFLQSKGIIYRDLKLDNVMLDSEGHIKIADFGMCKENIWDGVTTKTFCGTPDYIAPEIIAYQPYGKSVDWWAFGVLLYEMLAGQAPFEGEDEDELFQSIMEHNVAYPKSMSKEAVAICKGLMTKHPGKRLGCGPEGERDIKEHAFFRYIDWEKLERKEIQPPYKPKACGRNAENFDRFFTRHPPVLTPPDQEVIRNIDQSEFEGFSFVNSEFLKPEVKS
EXPERIMENTAL READOUT: IC50 (nM)
Report the figure in nM without appending any unit label.

The following molecules have reported results that may help.
MOLECULE | ENDPOINT VALUE
O=C1NC(=O)C(c2cn(-c3cnc4ccccc4c3)c3ccccc23)=C1c1cn(CCO)c2ccccc12 [Compound 3] | 23
O=C1NC(=O)C(c2cn(-c3cccnc3)c3ccccc23)=C1c1cn(CCn2cnnn2)c2ccccc12 [Compound 10] | 123
CN(C)CCCn1cc(C2=C(c3cn(-c4ccccc4)c4ccccc34)C(=O)NC2=O)c2ccccc21 [Compound 6] | 23

Note: attention shifts to another entry.
input: Fill in the blank: the reported IC50 of O=C1NC(=O)C(c2cn(-c3cccnc3)c3ccccc23)=C1c1cn(CCO)c2ccccc12 [Compound 1] is ____.
output: 6
